- method-notes: Thermodynamic solubility assay in JP2
- settings: JP2 (Japan Pharmacopoeia 2nd fluid for dissolution), 37 °C, pH 6.8, aqueous buffer, thermodynamic from solid
Below, each entry is listed alongside its reported solubility thermodynamic.
Dear colleague, please return just the value in µg/mL, with no unit written.

Dear colleague, I am looking for the recorded solubility thermodynamic of the following compound: C[C@H](Nc1nc(N)nc(N)c1C#N)c1nc2ccn(C)c2cc1N1CCOCC1 [B, reference compound]
26

Do the same for Cc1nc(N)nc(N[C@@H](C)c2nc3ccn(C)c3cc2C2CCNCC2)c1C#N please
150

// same read-out, input: C[C@H](Nc1nc(N)nc(N)c1C#N)c1nc2ccn(C)c2cc1C1CCOCC1 [A, reference compound]
20

What do we get for Cc1nc(N)nc(N[C@@H](C)c2nc3ccn(C)c3cc2N2CCN[C@@H](C)C2)c1C#N ?
1730
